- Tested on: Mycolicibacterium smegmatis
- assay name: Antimycobacterial activity against Mycobacterium smegmatis (SANK 75075)
- Assay type: functional
assay readout: MIC (mg/L)

1. CO[C@H]1[C@@H](O)[C@H](n2ccc(=O)[nH]c2=O)O[C@@H]1[C@@H](O[C@H]1OC(C(=O)NCCc2ccc(Cl)cc2Cl)=C[C@H](O)[C@@H]1O)C(N)=O : 50
2. COc1ccccc1CNC(=O)C1=C[C@H](O)[C@H](O)[C@@H](O[C@@H](C(N)=O)[C@H]2O[C@@H](n3ccc(=O)[nH]c3=O)[C@H](O)[C@@H]2OC)O1 : 50

###

- System: Mycolicibacterium smegmatis
- assay name: Antimycobacterial activity against Mycobacterium smegmatis (SANK 75075)
- Assay type: functional
assay readout: MIC (µg/mL)

1) COc1ccc(CCNC(=O)C2=C[C@H](O)[C@H](O)[C@@H](O[C@@H](C(N)=O)[C@H]3O[C@@H](n4ccc(=O)[nH]c4=O)[C@H](O)[C@@H]3OC)O2)cc1 : 25

a: CO[C@H]1[C@@H](O)[C@H](n2ccc(=O)[nH]c2=O)O[C@@H]1[C@@H](O[C@H]1OC(C(=O)NCCc2ccc(Cl)cc2)=C[C@H](O)[C@@H]1O)C(N)=O
b: CCOCCCNC(=O)C1=C[C@H](O)[C@H](O)[C@@H](O[C@@H](C(N)=O)[C@H]2O[C@@H](n3ccc(=O)[nH]c3=O)[C@H](O)[C@@H]2OC)O1
input: Given the two records a and b , choose the one whose MIC value is lower. Write down the label attached to your selection.
output: a
